Tested on: E. faecium VRE 55A6
Assay explanation: microbe, parasite or virus in culture
Type: cell-based, Enterococcus faecium
Reported conditions: E. faecium VRE 55A6; pairwise, with daptomycin
MIC In combination: recorded values
Measured attribute: MIC In combination (mg/L)

[[record]]
compound = "C=C1CC/C=C(\\C)CC[C@@H]2[C@@H]1CC2(C)C (relative stereo) [Trans-caryophyllene, trans-caryophyllene]"
readout_value = 2

[[record]]
compound = "C=C(C)[C@@H]1CCC(C)=C[C@H]1c1c(O)cc(CCCCC)cc1O [CBD, cannabidiol, reference compound]"
readout_value = 0.5

[[record]]
compound = "CCCCCc1cc(O)c2c(c1)OC(C)(CCC=C(C)C)C=C2 (stereo not shown) [CBC, cannabichromene]"
readout_value = 0.25

[[record]]
compound = "CCCCCc1cc(O)c(C/C=C(\\C)CCC=C(C)C)c(O)c1 [CBG, cannabigerol]"
readout_value = 2


====

The reader will find reported MIC values listed item by item below.
Tested on: E. faecium clinical isolate 58C9 (vancomycin and daptomycin resistant)
Assay explanation: microbe, parasite or virus in culture
Reported conditions: Enterococcus faecium
Measured attribute: MIC

[[record]]
compound = "CCCCCc1cc(O)c(C/C=C(\\C)CCC=C(C)C)c(O)c1 [CBG, cannabigerol]"
measured_attribute = "MIC"
readout_value = "1 µg/mL"

[[record]]
compound = "CCCCCc1cc(O)c2c(c1)OC(C)(CCC=C(C)C)C=C2 (centres unmarked) [CBC, cannabichromene]"
measured_attribute = "MIC"
readout_value = "1 µg/mL"

[[record]]
compound = "CCCCCc1cc(O)c(C/C=C(\\C)CCC=C(C)C)c(O)c1C(=O)O [CBGA, cannabigerolic acid]"
measured_attribute = "MIC"
readout_value = "16 µg/mL"

[[record]]
compound = "C=C(C)[C@@H]1CCC(C)=C[C@H]1c1c(O)cc(CCCCC)cc1O [CBD, cannabidiol, reference compound]"
measured_attribute = "MIC"
readout_value = "1 µg/mL"

[[record]]
compound = "C=C(C)[C@@H]1CCC(C)=C[C@H]1c1c(O)cc(CCCCC)c(C(=O)O)c1O [CBDA, cannabidiolic acid]"
measured_attribute = "MIC"
readout_value = "16 µg/mL"


====

Test system: E. faecium 3303
Assay explanation: microbe, parasite or virus in culture
Assay type: cell-based, Enterococcus faecium
Reported conditions: E. faecium 3303; pairwise, with daptomycin
# MIC In combination per entry
Measured attribute: MIC In combination (µg/mL)

[[record]]
compound = "C=C(C)[C@@H]1CCC(C)=C[C@H]1c1c(O)cc(CCCCC)cc1O [CBD, cannabidiol, reference compound]"
measured_attribute = "MIC In combination"
unit_spec = "µg/mL"
readout_value = 1

[[record]]
compound = "CCCCCc1cc(O)c2c(c1)OC(C)(CCC=C(C)C)C=C2 (stereo not shown)"
measured_attribute = "MIC In combination"
unit_spec = "µg/mL"
readout_value = 0.5

[[record]]
compound = "CCCCCc1cc(O)c(C/C=C(\\C)CCC=C(C)C)c(O)c1"
measured_attribute = "MIC In combination"
unit_spec = "µg/mL"
readout_value = 0.125

[[record]]
compound = "C=C1CC/C=C(\\C)CC[C@@H]2[C@@H]1CC2(C)C (relative stereo) [Trans-caryophyllene, trans-caryophyllene]"
measured_attribute = "MIC In combination"
unit_spec = "µg/mL"
readout_value = 4


====

Quick list: MIC per entry.
System: E. faecium clinical isolate 69C6 (vancomycin resistant)
Assay explanation: microbe, parasite or virus in culture
Reported conditions: Enterococcus faecium
Measured attribute: MIC (µg/mL)

[[record]]
molecule = "CCCCCc1cc(O)c(C/C=C(\\C)CCC=C(C)C)c(O)c1C(=O)O [CBGA, cannabigerolic acid]"
readout_value = 8

[[record]]
molecule = "CCCCCc1cc(O)c2c(c1)OC(C)(CCC=C(C)C)C=C2 (centres unmarked) [CBC, cannabichromene]"
readout_value = 1

[[record]]
molecule = "C=C(C)[C@@H]1CCC(C)=C[C@H]1c1c(O)cc(CCCCC)cc1O [CBD, cannabidiol, reference compound]"
readout_value = 1

[[record]]
molecule = "C=C(C)[C@@H]1CCC(C)=C[C@H]1c1c(O)cc(CCCCC)c(C(=O)O)c1O [CBDA, cannabidiolic acid]"
readout_value = 16

[[record]]
molecule = "CCCCCc1cc(O)c(C/C=C(\\C)CCC=C(C)C)c(O)c1 [CBG, cannabigerol]"
readout_value = 1


====

Tested on: Streptococcus pyogenes ATCC 51878
Assay explanation: MIC determination
Type: cell-based
Reported conditions: Streptococcus pyogenes, ATCC51878
Measured attribute: MIC

[[record]]
molecule = "CCCCCc1cc(O)c(C/C=C(\\C)CCC=C(C)C)c(O)c1"
readout_value = "1 µg/mL"

[[record]]
molecule = "C=C(C)[C@@H]1CCC(C)=C[C@H]1c1c(O)cc(CCCCC)c(C(=O)O)c1O"
readout_value = "8 µg/mL"

[[record]]
molecule = "CCCCCc1cc(O)c2c(c1)OC(C)(CCC=C(C)C)C=C2 (centres unmarked)"
readout_value = "1 µg/mL"

[[record]]
molecule = "CCCCCc1cc2c(c(O)c1C(=O)O)C=CC(C)(CCC=C(C)C)O2 (centres unmarked)"
readout_value = "0.5 to 1 µg/mL"

[[record]]
molecule = "CCCCCc1cc(O)c(C/C=C(\\C)CCC=C(C)C)c(O)c1C(=O)O"
readout_value = "2 µg/mL"


====

Test system: Mycobacterium tuberculosis H37Rv
Assay explanation: MIC determination (PrestoBlue)
Format: cell-based
Reported conditions: Mycobacterium tuberculosis, H37RV, Media PB, read-out: MIC
Measured attribute: MIC (µg/mL)

[[record]]
compound = "CCCCCc1cc(O)c(C/C=C(\\C)CCC=C(C)C)c(O)c1C(=O)O [CBGA, cannabigerolic acid]"
measured_attribute = "MIC"
readout_value = 2

[[record]]
compound = "C=C(C)[C@@H]1CCC(C)=C[C@H]1c1c(O)cc(CCCCC)c(C(=O)O)c1O [CBDA, cannabidiolic acid]"
measured_attribute = "MIC"
readout_value = 4

[[record]]
compound = "CCCCCc1cc(O)c2c(c1)OC(C)(CCC=C(C)C)C=C2 (centres unmarked) [CBC, cannabichromene]"
measured_attribute = "MIC"
readout_value = 4

[[record]]
compound = "C=C(C)[C@@H]1CCC(C)=C[C@H]1c1c(O)cc(CCCCC)cc1O [CBD, cannabidiol, reference compound]"
measured_attribute = "MIC"
readout_value = 4

[[record]]
compound = "CCCCCc1cc(O)c(C/C=C(\\C)CCC=C(C)C)c(O)c1 [CBG, cannabigerol]"
measured_attribute = "MIC"
readout_value = 2


====

Test system: E. faecium 3303
Assay explanation: microbe, parasite or virus in culture
Type: cell-based, Enterococcus faecium
Reported conditions: E. faecium 3303; pairwise, with trans-caryophyllene
Measured attribute: MIC In combination (µg/mL)

[[record]]
compound = "C=C(C)[C@@H]1CCC(C)=C[C@H]1c1c(O)cc(CCCCC)cc1O [CBD, cannabidiol, reference compound]"
measured_attribute = "MIC In combination"
unit_spec = "µg/mL"
readout_value = 0.125

[[record]]
compound = "CCCCCCCCCC(=O)N[C@@H](Cc1c[nH]c2ccccc12)C(=O)N[C@H](CC(N)=O)C(=O)N[C@@H](CC(=O)O)C(=O)N[C@@H]1C(=O)NCC(=O)N[C@@H](CCCN)C(=O)N[C@@H](CC(=O)O)C(=O)N[C@H](C)C(=O)N[C@@H](CC(=O)O)C(=O)NCC(=O)N[C@H](CO)C(=O)N[C@@H]([C@H](C)CC(=O)O)C(=O)N[C@@H](CC(=O)c2ccccc2N)C(=O)O[C@@H]1C [Daptomycin, daptomycin, reference compound]"
measured_attribute = "MIC In combination"
unit_spec = "µg/mL"
readout_value = 0.5

[[record]]
compound = "CCCCCc1cc(O)c2c(c1)OC(C)(CCC=C(C)C)C=C2 (stereo not shown) [CBC, cannabichromene]"
measured_attribute = "MIC In combination"
unit_spec = "µg/mL"
readout_value = 0.125

[[record]]
compound = "CCCCCc1cc(O)c(C/C=C(\\C)CCC=C(C)C)c(O)c1 [CBG, cannabigerol]"
measured_attribute = "MIC In combination"
unit_spec = "µg/mL"
readout_value = 0.125


====

Tested on: E. faecium clinical isolate 55A6 (vancomycin and daptomycin resistant)
Assay explanation: microbe, parasite or virus in culture
Reported conditions: Enterococcus faecium
Form field: MIC (one value per entry).
Measured attribute: MIC (µg/mL)

[[record]]
compound = "C=C(C)[C@@H]1CCC(C)=C[C@H]1c1c(O)cc(CCCCC)cc1O [CBD, cannabidiol, reference compound]"
unit_spec = "µg/mL"
readout_value = 2

[[record]]
compound = "CCCCCc1cc(O)c(C/C=C(\\C)CCC=C(C)C)c(O)c1"
unit_spec = "µg/mL"
readout_value = 1

[[record]]
compound = "CCCCCc1cc(O)c(C/C=C(\\C)CCC=C(C)C)c(O)c1C(=O)O"
unit_spec = "µg/mL"
readout_value = 8

[[record]]
compound = "C=C(C)[C@@H]1CCC(C)=C[C@H]1c1c(O)cc(CCCCC)c(C(=O)O)c1O"
unit_spec = "µg/mL"
readout_value = 16

[[record]]
compound = "CCCCCc1cc(O)c2c(c1)OC(C)(CCC=C(C)C)C=C2 (centres unmarked)"
unit_spec = "µg/mL"
readout_value = 1

